# Tested on: AP2 (synthetic (de novo))
# assay-summary: spectral shift
# condition-label: Spectral shift: 10 mM Tris-HCl pH 8.0, 0.05% Tween 20, no added salt, 25 C, Cy5 oligo (20 nM stock), 30 min at RT; MST with oncogenic RNAs in human plasma-like …
observed-property: Kd (µM)
Please respond with the number in µM and leave the unit unwritten.

Inquiry: Form field: reported Kd of AAAAAAAAAAAA [poly(A) RNA]
Reply text: 18.8

###

# System: CP2 (synthetic (de novo))
# assay-summary: spectral shift
# condition-label: Spectral shift: 10 mM Tris-HCl pH 8.0, 0.05% Tween 20, no added salt, 25 C, Cy5 oligo (20 nM stock), 30 min at RT; MST with oncogenic RNAs in human plasma-like …
observed-property: Kd (nM)
API: value field is a number in nM; no unit string.

Inquiry: Record CCCCCCCCCCCC [poly(C) RNA] : what is its Kd with CP2 (synthetic (de novo))?
Reply text: 1200

###

# System: AP2-short Q to S (synthetic (de novo))
# assay-summary: spectral shift
# condition-label: Spectral shift: 10 mM Tris-HCl pH 8.0, 0.05% Tween 20, no added salt, 25 C, Cy5 oligo (20 nM stock), 30 min at RT; MST with oncogenic RNAs in human plasma-like …
observed-property: Kd (µM)
Entry rule: numbers only, all in µM.

Inquiry: For AAAAAAAAAAAA [poly(A) RNA] , what is its reported Kd?
Reply text: 115

###

# Test system: AP2 QNQ to TNH (synthetic (de novo))
# assay-summary: spectral shift
# condition-label: Spectral shift: 10 mM Tris-HCl pH 8.0, 0.05% Tween 20, no added salt, 25 C, Cy5 oligo (20 nM stock), 30 min at RT; MST with oncogenic RNAs in human plasma-like …
observed-property: Kd (µM)
# value in µM; strip the unit string

Inquiry: State the recorded Kd for this entry: CCCCCCCCCCCC [poly(C) RNA]
Reply text: 120
